cell viability reference
- Tested on: SEM cells
- EXPERIMENTAL_PROTOCOL: cell viability relative to DMSO control; higher = less cytotoxic
- MEASUREMENT_CONTEXT: RPMI 5 mM glucose + 10% dialyzed FBS; 48 h; 0.00702 µM
Please respond with the number in % and leave the unit unwritten.

Sample records with cell viability:
MOLECULE: Clc1ccc(C2(c3ccc(-c4cn[nH]c4)cc3)CCNCC2)cc1
STUDY_TARGET: SEM cells
cell viability, %: 90.7
--
MOLECULE: CCCCN(CCCC)CCC(O)c1cc2c(Cl)cc(Cl)cc2c2cc(C(F)(F)F)ccc12 (configuration not stated)
STUDY_TARGET: SEM cells
cell viability, %: 109
--
MOLECULE: CC(C)(C)/[N+]([O-])=C/c1ccc([S+](=O)([O-])[O][Na])cc1[S+](=O)([O-])[O][Na]
STUDY_TARGET: SEM cells
cell viability, %: 102
--
MOLECULE: O=C1NC(=O)[C@@H](c2cn3c4c(cccc24)CCC3)[C@@H]1c1c[nH]c2ccccc12
STUDY_TARGET: SEM cells
cell viability, %: 103
--
MOLECULE: ClC1=CC=C(CCCOC/2=N/NC(=O)C(=C2NCC3=CN=CC=C3)/Br)C=C1
STUDY_TARGET: SEM cells
cell viability, %: 123

Form field cell viability for item COc1nc(-c2ccc3c(c2)OCO3)n(-c2ccc(NC(=O)CSc3ccccc3)cc2)n1 on SEM cells: 122

Form field cell viability for item COC1=CC=C2Nc3cc(Cl)ccc3C(N=C3C=C(CN4CCCC4)C(=O)C(CN4CCCC4)=C3)=C2N1 on SEM cells: 108

Form field cell viability for item Cc1ccc(-n2nc(C(C)(C)C)cc2NC(=O)Nc2ccc(OCCN3CCOCC3)c3ccccc23)cc1 on SEM cells: 79.6

Form field cell viability for item C[C@@H]1CC[C@@]2(OC1)O[C@H]3C[C@H]4[C@@H]5C/C=C6/C[C@H](CC[C@]6(C)[C@H]5CC[C@]4(C)[C@H]3[C@@H]2C)O[C@@H]7O[C@H](CO)[C@@H](O[C@@H]8O[C@@H](C)[C@H](O)[C@@H](O)[C@H]8O)[C@H](O)[C@H]7O[C@@H]9O[C@@H](C)[C@H](O)[C@@H](O)[C@H]9O on SEM cells: 114

Form field cell viability for item O=C(Nc1ccc(OC(F)(F)F)cc1)c1sccc1NCc1ccnc2ccccc12 on SEM cells: 127

###

cell viability reference
- Test system: SEM cells
- EXPERIMENTAL_PROTOCOL: cell viability relative to DMSO control; higher = less cytotoxic
- MEASUREMENT_CONTEXT: RPMI 5 mM glucose + 10% FBS; 48 h; 0.0632 µM
Please respond with the number in % and leave the unit unwritten.

MOLECULE: Fc1cc(-c2cccc3ncc(-c4cnn(C5CCNCC5)c4)nc23)cc(F)c1CN1CCOCC1
cell viability (%): 112

MOLECULE: CC(C)(C)OC(=O)CN(Cc1ccc(Cl)cc1)Cc1ccc([N+](=O)[O-])s1
cell viability (%): 103

MOLECULE: O=C(NC1CCOCC1)c1ccc(-c2cc(-c3c[nH]nc3-c3ccccn3)ccn2)cc1
cell viability (%): 118

MOLECULE: NC1CCC(N[C@@H]2C[C@H]2c2ccccc2)CC1 (stereo partly specified)
cell viability (%): 119

MOLECULE: COc1cc2nccc(Oc3ccc(NC(=O)Nc4ccc(F)cc4F)c(F)c3)c2cc1OC
cell viability (%): 71.9

MOLECULE: OC[C@H]1O[C@@H](Oc2ccc(O)cc2)[C@H](O)[C@@H](O)[C@@H]1O
cell viability (%): 90.3

MOLECULE: COc1cc2nccc(Oc3ccc(NC(=O)Nc4cc(C)on4)c(Cl)c3)c2cc1OC
cell viability (%): 82.1

MOLECULE: Cc1ccc(NC(=O)c2ccc(CN3CCN(C)CC3)cc2)cc1Nc1nccc(-c2cccnc2)n1
cell viability (%): 124

MOLECULE: O=[N+]([O-])c1cn2c(n1)OC[C@@H](OCc1ccc(OC(F)(F)F)cc1)C2
cell viability (%): 117

MOLECULE: FC(F)(F)c1ccc(Nc2nc3cc(Oc4ccnc(-c5ncc(C(F)(F)F)[nH]5)c4)ccc3[nH]2)cc1
cell viability (%): 125

Entry NC(=O)N1c2ccccc2CC(=O)c2ccccc21 ; cell viability = 126

Entry CO[C@H]1C[C@@H]2CC[C@@H](C)[C@@](O)(O2)C(=O)C(=O)N2CCCC[C@H]2C(=O)O[C@H]([C@H](C)C[C@@H]2CC[C@@H](OP(C)(C)=O)[C@H](OC)C2)CC(=O)[C@H](C)/C=C(\C)[C@@H](O)[C@@H](OC)C(=O)[C@H](C)C[C@H](C)/C=C/C=C/C=C/1C ; cell viability = 80.9

Entry Cc1nc(Nc2ncc(C(=O)Nc3c(C)cccc3Cl)s2)cc(N2CCN(CCO)CC2)n1 ; cell viability = 68.2

Entry CC1SC/2=C(C(O)=O)/C(=O)C3=CC(=C(C=C3N12)N4CCN(CC4)C\C5=C(C)\OC(=O)O5)F (stereo unspecified) ; cell viability = 124

Entry COc1cc2c(Nc3ccc(NC(=O)c4ccccc4)cc3)ncnc2cc1OCCCN1CCOCC1 ; cell viability = 136

Entry CC(C)C[C@H](CN)CC(=O)O ; cell viability = 93.9

Entry COC[C@H](NC(=O)c1cnc(C)s1)C(=O)N[C@@H](COC)C(=O)N[C@@H](Cc1ccccc1)C(=O)[C@@]1(C)CO1 ; cell viability = 82

Entry Cc1c[nH]c(/C=C2\C(=O)Nc3ccccc32)c1CCC(=O)O ; cell viability = 72.7
